Data provenance is patent US4738979A.

Tested on: α2 adrenergic receptors of the central nervous system
Test: inhibition of the antihypertensive action of clonidine in spontaneously hypertensive rats (SHR)
Type: in vivo, rat
Conditions: 1 mg/kg p.o., clonidine 50 μg/kg s.c.
observationType: α2 Antagonist (% Inhibition of the Antihypertension of Clonidine)
Units required after the number.

compound: Cc1[nH]cnc1CC(c1ccccc1)c1ccccc1 [Compound 7]
measValue: 82%
//
compound: Cc1nc(CC(c2ccccc2)c2ccccc2)c[nH]1 [Compound 25]
measValue: 87%

Shifting focus to the compound that follows.
Lookup: So what's the measured α2 Antagonist (% Inhibition of the Antihypertension of Clonidine) for this one? CCCC(c1c[nH]cn1)C(c1ccccc1)c1ccccc1 (stereo not drawn) [Compound 19, 4(5)-[2-(1,1-diphenyl)pentyl]imidazole]
Found: 75%
